Property: MIC; scope: individual compounds
system: Pasteurella multocida 60A; experiment: MIC, broth-dilution microtiter test, Pasteurella multocida 60A; format: cell-based; conditions: Pasteurella multocida 60A; avian isolate; broth-dilution microtiter; read-out: MIC

compound	MIC
CCC1OC(=O)CC(O)C(C)C(OC2OC(C)C(O)C(N(C)C)C2O)C(CC2Nc3ccccc3S2)CC(C)C(=O)C=CC(C)=CC1COC1OC(C)C(O)C(OC)C1OC (centres unmarked)	25 µg/mL
CCC1OC(=O)CC(O)C(C)C(OC2OC(C)C(OC3CC(C)(O)C(O)C(C)O3)C(N(C)C)C2O)C(CCOC(=O)COc2ccccc2)CC(C)C(=O)C=CC(C)=CC1COC1OC(C)C(O)C(OC)C1OC (centres unmarked)	> 50 µg/mL
CCC1OC(=O)CC(O)C(C)C(OC2OC(C)C(OC3CC(C)(O)C(O)C(C)O3)C(N(C)C)C2O)C(C)CC(C)C(=O)C=CC(C)=CC1COC1OC(C)C(O)C(O)C1OC (centres unmarked)	> 50 µg/mL
CCC1OC(=O)CC(O)C(C)C(OC2OC(C)C(OC3CC(C)(O)C(O)C(C)O3)C(N(C)C)C2O)C(CCOc2ccc([N+](=O)[O-])cc2)CC(C)C(=O)C=CC(C)=CC1COC1OC(C)C(O)C(OC)C1OC (centres unmarked)	> 50 µg/mL
CCC1OC(=O)CC(O)C(C)C(OC2OC(C)C(OC3CC(C)(O)C(O)C(C)O3)C(N(C)C)C2O)C(CCOc2ccc(OC)cc2)CC(C)C(=O)C=CC(C)=CC1COC1OC(C)C(O)C(OC)C1OC (centres unmarked)	> 50 µg/mL
CCC1OC(=O)CC(O)C(C)C(OC2OC(C)C(O)C(N(C)C)C2O)C(CCOC(=O)c2nn(CC)c3cc4c(cc3c2=O)OCO4)CC(C)C(=O)C=CC(C)=CC1COC1OC(C)C(O)C(OC)C1OC (centres unmarked)	25 µg/mL
CCC1OC(=O)CC(O)C(C)C(OC2OC(C)C(OC3CC(C)(O)C(O)C(C)O3)C(N(C)C)C2O)C(CCSc2ccccc2)CC(C)C(=O)C=CC(C)=CC1COC1OC(C)C(O)C(OC)C1OC (centres unmarked)	> 50 µg/mL
CCC1OC(=O)CC(O)C(C)C(OC2OC(C)C(OC3CC(C)(O)C(O)C(C)O3)C(N(C)C)C2O)C(CCOc2cc(Cl)cc(Cl)c2)CC(C)C(=O)C=CC(C)=CC1COC1OC(C)C(O)C(OC)C1OC (centres unmarked)	> 50 µg/mL

[in] Provide the documented MIC with Pasteurella multocida 60A as the system for CCOC(=O)C1CSC(CC2CC(C)C(=O)C=CC(C)=CC(COC3OC(C)C(O)C(OC)C3OC)C(CC)OC(=O)CC(O)C(C)C2OC2OC(C)C(O)C(N(C)C)C2O)N1 (centres unmarked)
[out] 25 µg/mL

[in] MIC of CCC1CC(C)C(=O)C=CC(C)=CC(COC2OC(C)C(O)C(O)C2OC)C(CC)OC(=O)CC(O)C(C)C1OC1OC(C)C(O)C(N(C)C)C1O (centres unmarked) on Pasteurella multocida 60A?
[out] 25 µg/mL

----------
Recorded measurements of MIC, one per entry
test system: Mycoplasma synoviae; assay: MIC, broth-dilution microtiter test, Mycoplasma synoviae; assay type: cell-based; conditions: Mycoplasma synoviae; broth-dilution microtiter
A number alone suffices; assume µg/mL.

# count of solved cases: 4
compound	property-label	units-label	readout-value
CCC1OC(=O)CC(O)C(C)C(OC2OC(C)C(O)C(N(C)C)C2O)C(CCOc2ccc(CN3CCCCCC3)cc2)CC(C)C(=O)C=CC(C)=CC1COC1OC(C)C(O)C(OC)C1OC (centres unmarked) [Compound 42]	MIC	µg/mL	0.195
CCC1OC(=O)CC(O)C(C)C(OC2OC(C)C(O)C(N(C)C)C2O)C(CCOc2ccc(Oc3ccccc3)cc2)CC(C)C(=O)C=CC(C)=CC1COC1OC(C)C(O)C(OC)C1OC (centres unmarked) [Compound 47, 20-DH-20-O-(p-Phenoxyphenyl)desmycosin]	MIC	µg/mL	0.09
CCC1OC(=O)CC(O)C(C)C(OC2OC(C)C(O)C(N(C)C)C2O)C(CCOc2ncnc3ccccc23)CC(C)C(=O)C=CC(C)=CC1COC1OC(C)C(O)C(OC)C1OC (centres unmarked) [Compound 51, 20-DH-20-O-(Quinazolin-4-yl)desmycosin]	MIC	µg/mL	0.39
CCC1OC(=O)CC(O)C(C)C(OC2OC(C)C(O)C(N(C)C)C2O)C(CCOc2nnc(-c3ccccc3)c(-c3ccccc3)n2)CC(C)C(=O)C=CC(C)=CC1COC1OC(C)C(O)C(OC)C1OC (centres unmarked) [Compound 50]	MIC	µg/mL	0.39

With those in mind, consider the next compound.
[in] Fill blank: measured MIC of the compound CCC1OC(=O)CC(O)C(C)C(OC2OC(C)C(O)C(N(C)C)C2O)C(CCN2C(=O)c3ccccc3C2=O)CC(C)C(=O)C=CC(C)=CC1COC1OC(C)C(O)C(OC)C1OC (centres unmarked) [Compound 43, 20-DH-DO-20-N-Phthalimidodesmycosin] is ____.
[out] 0.78

----------
test system: Mycoplasma gallisepticum; test: MIC, broth-dilution microtiter test, Mycoplasma gallisepticum; format: cell-based; conditions: Mycoplasmoides gallisepticum; Mycoplasma gallisepticum; broth-dilution microtiter; read-out: MIC
property-label: MIC (µg/mL)
Write down the numeric answer in µg/mL and omit the unit.

Known results for compounds:
compound	target-desc	units-label	MIC
CCC1OC(=O)CC(O)C(C)C(OC2OC(C)C(OC3CC(C)(O)C(O)C(C)O3)C(N(C)C)C2O)C(CCOc2ccc(OC)cc2)CC(C)C(=O)C=CC(C)=CC1COC1OC(C)C(O)C(OC)C1OC (centres unmarked)	Mycoplasma gallisepticum	µg/mL	0.78
CCC1OC(=O)CC(O)C(C)C(OC2OC(C)C(O)C(N(C)C)C2O)C(CCSc2ccccc2)CC(C)C(=O)C=CC(C)=CC1COC1OC(C)C(O)C(OC)C1OC (centres unmarked)	Mycoplasma gallisepticum	µg/mL	0.09
CCC1OC(=O)CC(O)C(C)C(OC2OC(C)C(O)C(N(C)C)C2O)C(CCOC(C)=O)CC(C)C(=O)C=CC(C)=CC1COC1OC(C)C(O)C(OC)C1OC (centres unmarked)	Mycoplasma gallisepticum	µg/mL	0.39

[in] Any idea what its MIC is? The compound is CCC1OC(=O)CC(O)C(C)C(OC2OC(C)C(O)C(N(C)C)C2O)C(CC2SCCN2Cc2ccccc2)CC(C)C(=O)C=CC(C)=CC1COC1OC(C)C(O)C(OC)C1OC (centres unmarked)
[out] 0.09

----------
tested on: Haemophilus influenzae Holt; assay: MIC, standard agar-dilution assay, Haemophilus influenzae Holt; format: cell-based; conditions: Haemophilus influenzae Holt; ampicillin-sensitive strain; agar dilution
property-label: MIC (µg/mL)
Quick note: give the figure in µg/mL, leave out the unit.

Below: 2 compounds and their reported MIC.
compound	units-label	MIC
CCC1OC(=O)CC(O)C(C)C(OC2OC(C)C(O)C(N(C)C)C2O)C(CCOc2ccc(CN3CCCCCC3)cc2)CC(C)C(=O)C=CC(C)=CC1COC1OC(C)C(O)C(OC)C1OC (stereo not drawn)	µg/mL	32
CCC1OC(=O)CC(O)C(C)C(OC2OC(C)C(O)C(N(C)C)C2O)C(CCOc2cccc(Oc3ccccc3)c2)CC(C)C(=O)C=CC(C)=CC1COC1OC(C)C(O)C(OC)C1OC (stereo not drawn)	µg/mL	16

[in] Return reported MIC; argument: CCC1OC(=O)CC(O)C(C)C(OC2OC(C)CC(N(C)C)C2O)C(CCOc2ccccc2)CC(C)C(=O)C=CC(C)=CC1COC1OC(C)C(O)C(OC)C1OC (stereo not drawn)
[out] 4

[in] Which MIC is reported for this compound? CCC1OC(=O)CC(O)C(C)C(OC2OC(C)C(O)C(N(C)C)C2O)C(CCN=[N+]=[N-])CC(C)C(=O)C=CC(C)=CC1COC1OC(C)C(O)C(OC)C1OC (stereo not drawn)
[out] 16

[in] Entry CCC1OC(=O)CC(O)C(C)C(OC2OC(C)C(O)C(N(C)C)C2O)C(CCS(=O)(=O)c2ccc(C)cc2)CC(C)C(=O)C=CC(C)=CC1COC1OC(C)C(O)C(OC)C1OC (stereo not drawn) : reported MIC = ?
[out] 4

----------
Property: MIC; scope: individual molecules
test system: Streptococcus Group D X66; test: MIC, standard agar-dilution assay, Streptococcus Group D X66; format: cell-based
The response must be a number in µg/mL with no trailing unit.

Examples from the recorded data:
molecule	MIC [µg/mL]
CCC1OC(=O)CC(O)C(C)C(OC2OC(C)C(OC3CC(C)(O)C(O)C(C)O3)C(N(C)C)C2O)C(CCOC(=O)COc2ccccc2)CC(C)C(=O)C=CC(C)=CC1COC1OC(C)C(O)C(OC)C1OC (stereo not drawn)	8
CCC1OC(=O)CC(O)C(C)C(OC2OC(C)C(OC3CC(C)(O)C(O)C(C)O3)C(N(C)C)C2O)C(CCOc2ccc(C(=O)c3ccccc3)cc2)CC(C)C(=O)C=CC(C)=CC1COC1OC(C)C(O)C(OC)C1OC (stereo not drawn)	4
CCC1OC(=O)CC(O)C(C)C(OC2OC(C)C(O)C(N(C)C)C2O)C(CCOC(=O)COc2ccccc2)CC(C)C(=O)C=CC(C)=CC1COC1OC(C)C(O)C(OC)C1OC (stereo not drawn)	0.5

# evaluate next
[in] Which MIC value is on record for CCC1OC(=O)CC(O)C(C)C(OC2OC(C)C(O)C(N(C)C)C2O)C(CCOc2ccc(OC)cc2)CC(C)C(=O)C=CC(C)=CC1COC1OC(C)C(O)C(OC)C1OC (stereo not drawn) ?
[out] 4
